# System tested: T1, 4H619-bH
# T1 chain: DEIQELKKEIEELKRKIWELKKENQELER
# Protocol notes: two-hybrid library CCNG1;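 also: natural log of median RNA to DNA barcode read ratio; higher means stronger binding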
Quantity name: interaction score
A bare number is all that is needed in reply.

Some binders with recorded interaction score:
- Binder: "DENQELKKENEELERKIWELKKKIQELKR [4H1710-bH]"
  interaction score: 0.404
- Binder: "DENQELEKENEELKREIWELEKKIQELKR [4H1222-bH]"
  interaction score: -1.4
- Binder: "DKNQELEKEIEELKRKIWELEKENQELKR [4H3172-bH]"
  interaction score: -1.22
- Binder: "DENQELEKKIEELKREIWELKKKNQELER [4H1359-bH]"
  interaction score: -0.165

Shifting focus to the binder that follows.
Please give the documented interaction score of DKNQELKKENEELKRKIWELKKEIQELER [4H3817-bH]
0.591

Cited source: paper PMC10397247
